- study-system: COX-1 (Ovis aries)
- Sequence (P05979 25-600): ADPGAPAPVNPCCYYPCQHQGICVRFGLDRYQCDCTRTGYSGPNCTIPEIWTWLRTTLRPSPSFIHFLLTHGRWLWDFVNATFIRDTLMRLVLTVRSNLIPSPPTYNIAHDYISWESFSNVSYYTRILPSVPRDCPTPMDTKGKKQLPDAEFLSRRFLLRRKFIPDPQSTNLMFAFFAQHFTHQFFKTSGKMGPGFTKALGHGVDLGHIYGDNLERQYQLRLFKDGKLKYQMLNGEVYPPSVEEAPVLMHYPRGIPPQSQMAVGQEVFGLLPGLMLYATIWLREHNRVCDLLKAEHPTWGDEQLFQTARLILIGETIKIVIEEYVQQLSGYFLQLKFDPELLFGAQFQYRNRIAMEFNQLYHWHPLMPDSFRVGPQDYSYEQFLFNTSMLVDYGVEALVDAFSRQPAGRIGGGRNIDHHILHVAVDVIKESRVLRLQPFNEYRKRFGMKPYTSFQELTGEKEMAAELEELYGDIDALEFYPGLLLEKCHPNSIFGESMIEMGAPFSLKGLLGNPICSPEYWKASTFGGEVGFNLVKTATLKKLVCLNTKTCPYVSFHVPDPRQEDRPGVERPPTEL
parameter-measured: pIC50
Answers are plain numbers, as −log10 of the molar value.

Fill blank: measured pIC50 of the compound N=C(Nc1ccc(S(N)(=O)=O)cc1)c1nnc(-c2ccccc2)s1 [Example 32] is ____.
7.10

---

- study-system: COX-2 (Ovis aries, UniProt P79208)
- Construct: host or cells: insect cells (membranes, CHAPS-solubilized)
- Sequence (P79208 17-603): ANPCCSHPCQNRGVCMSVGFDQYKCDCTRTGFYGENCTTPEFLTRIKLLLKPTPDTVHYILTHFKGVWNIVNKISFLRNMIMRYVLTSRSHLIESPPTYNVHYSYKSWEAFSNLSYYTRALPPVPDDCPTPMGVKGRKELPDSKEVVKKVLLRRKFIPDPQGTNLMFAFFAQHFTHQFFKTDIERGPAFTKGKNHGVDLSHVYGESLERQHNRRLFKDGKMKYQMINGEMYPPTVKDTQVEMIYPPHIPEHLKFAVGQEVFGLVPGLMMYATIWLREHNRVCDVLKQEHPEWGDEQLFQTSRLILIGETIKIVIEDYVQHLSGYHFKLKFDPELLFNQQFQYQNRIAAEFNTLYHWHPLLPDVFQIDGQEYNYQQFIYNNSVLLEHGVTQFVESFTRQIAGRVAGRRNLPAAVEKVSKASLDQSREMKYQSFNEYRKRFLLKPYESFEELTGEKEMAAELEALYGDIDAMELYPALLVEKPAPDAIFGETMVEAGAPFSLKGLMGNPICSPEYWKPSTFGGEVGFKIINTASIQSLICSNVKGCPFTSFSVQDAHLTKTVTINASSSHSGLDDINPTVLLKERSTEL
- test: Assay for COX-2 activity (Ovine), PGE2 formation by ELISA
- Format: biochemical
- conditions-used: second number of cell COX1/COX2
parameter-measured: IC50 (nM)
Give bare numbers, in nM.

Item CS(=O)(=O)c1ccc(-n2cc(C(F)(F)F)nc2-c2nnc(Nc3ccccc3)s2)cc1 [Example 52] has what recorded IC50?
5.1
